Consider the following molecules; for each one, report its IC50.
target: cAMP and cAMP-inhibited cGMP 3',5'-cyclic phosphodiesterase 10A (Homo sapiens, UniProt Q9Y233)
Sequence (Q9Y233 whole entry): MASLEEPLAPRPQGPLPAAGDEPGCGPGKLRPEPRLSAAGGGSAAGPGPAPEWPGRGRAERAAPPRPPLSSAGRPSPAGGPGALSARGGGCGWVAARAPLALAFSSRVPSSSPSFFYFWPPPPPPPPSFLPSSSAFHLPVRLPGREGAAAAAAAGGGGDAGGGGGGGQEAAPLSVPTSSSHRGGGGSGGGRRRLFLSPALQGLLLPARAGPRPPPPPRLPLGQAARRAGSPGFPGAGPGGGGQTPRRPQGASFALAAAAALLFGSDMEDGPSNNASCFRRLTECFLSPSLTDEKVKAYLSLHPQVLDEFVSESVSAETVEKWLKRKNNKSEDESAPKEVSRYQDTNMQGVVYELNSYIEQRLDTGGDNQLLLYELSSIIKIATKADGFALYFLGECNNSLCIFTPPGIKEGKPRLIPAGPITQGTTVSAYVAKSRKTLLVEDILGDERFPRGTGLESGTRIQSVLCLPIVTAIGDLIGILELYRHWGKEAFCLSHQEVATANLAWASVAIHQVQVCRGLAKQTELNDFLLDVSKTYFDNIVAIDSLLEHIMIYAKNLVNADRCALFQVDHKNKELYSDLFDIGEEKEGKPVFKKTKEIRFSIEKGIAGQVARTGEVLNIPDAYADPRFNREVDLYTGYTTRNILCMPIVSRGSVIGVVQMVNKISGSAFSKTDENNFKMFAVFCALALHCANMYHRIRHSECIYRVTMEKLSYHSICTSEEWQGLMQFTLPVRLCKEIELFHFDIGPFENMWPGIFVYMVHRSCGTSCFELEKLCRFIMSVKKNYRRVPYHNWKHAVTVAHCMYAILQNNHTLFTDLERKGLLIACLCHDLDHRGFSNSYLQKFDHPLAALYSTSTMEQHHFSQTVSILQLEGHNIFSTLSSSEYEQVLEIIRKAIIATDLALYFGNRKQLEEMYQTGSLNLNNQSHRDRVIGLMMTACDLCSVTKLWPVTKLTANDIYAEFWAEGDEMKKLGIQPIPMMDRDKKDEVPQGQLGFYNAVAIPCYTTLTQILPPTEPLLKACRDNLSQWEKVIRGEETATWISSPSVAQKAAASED
Numbers only, in nM.

Field: example entries. Status: answers known.
1) CNC(=O)c1ccc(F)c(F)c1NC(=O)c1nc(C2CC2)cnc1Nc1cncnc1	1.8
2) Cn1ncc(NC(=O)c2nc(C3CC3)cnc2Nc2cncnc2)c1C(=O)NC1COC1	6.6
3) CC(C)(O)CNC(=O)c1cc(C#N)ccc1NC(=O)c1nc(C2CC2)cnc1Nc1cncnc1	0.7
4) CNC(=O)c1nc(C)ncc1NC(=O)c1nc(C2CC2)cnc1Nc1cncnc1	19.3

input: Sample CC1CCCCN1C(=O)c1ncccc1NC(=O)c1nc(C2CC2)cnc1Nc1cncnc1 (stereo not given) — what was its IC50?
output: 15.9

Recorded values, source ChEMBL document CHEMBL3639182.
